Values from PubChem BioAssay (NCI)

Assay: NCI Yeast Anticancer Drug Screen. Data for the rad52 strain (AID 147);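 further: 0% = growth of vehicle-treated control cultures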
Details: S. cerevisiae rad52 mutant growth inhibition; at 33.0 µM; hits give high values
The panel holds about 79,000 compounds, 15% with a hit somewhere; the sample as a whole holds those more often.
Listing of entries alongside the reported growth inhibition.
Measured quantity: growth inhibition (%)

Molecule: CC1=CC(=O)C=CC1=Nc1cc(Cl)c(O)c(Cl)c1
Measured quantity: growth inhibition
Measured result: 66
//
Molecule: c1ccc(-c2cc(C3CO3)c3ccccc3n2)cc1 (stereo not drawn)
Measured quantity: growth inhibition
Measured result: 70
//
Molecule: COc1cc(OC)c(CSCC(NC(=O)OCC2c3ccccc3-c3ccccc32)C(=O)O)c(OC)c1 (stereo not drawn)
Measured quantity: growth inhibition
Measured result: 97
//
Molecule: Cc1ccc(NC(=O)CCC(=O)C(C)C(=O)c2ccccc2)c(C)c1 (stereo not drawn)
Measured quantity: growth inhibition
Measured result: 1
//
Molecule: CN1C(=O)C(CC(=O)O)NC1=S (stereo not drawn)
Measured quantity: growth inhibition
Measured result: 6
//
Molecule: CC/C(=C(\c1ccccc1)c1ccc(OCC[N+](C)(C)C)cc1)c1ccccc1
Measured quantity: growth inhibition
Measured result: 99
//
Molecule: Cn1c(-c2ccc(/C=N\N3CCN(/N=C/c4ccc(-c5c[n+]6ccsc6n5C)cc4)CC3)cc2)c[n+]2ccsc12
Measured quantity: growth inhibition
Measured result: 16
//
Molecule: CN(C)N=Nc1ccc(N(C)C)cc1
Measured quantity: growth inhibition
Measured result: 16
//
Molecule: C=CC(C)(C)N1C(=O)C(C(C)=O)=C(O)C1Cc1c[nH]c2ccccc12 (stereo not drawn)
Measured quantity: growth inhibition
Measured result: 19
//
Molecule: N#CCCC1C(C#N)C2(Cl)CC1(Cl)C(Cl)=C2Cl (stereo not drawn)
Measured quantity: growth inhibition
Measured result: 81
//
Molecule: CC1=CN2C(c3ccccc3)=NON(c3ccc(C)cn3)C2C=C1 (stereo not drawn)
Measured quantity: growth inhibition
Measured result: 1
//
Molecule: Cc1ccc(S(=O)(=O)Nc2cccc3cccnc23)cc1
Measured quantity: growth inhibition
Measured result: 75
//
Molecule: CC(=O)/C(=C\c1ccc(Cl)c(Cl)c1)C(=O)C(C)CN(C)C (stereo not drawn)
Measured quantity: growth inhibition
Measured result: 52
//
Molecule: CC1=COC2=C(C)C(=O)C(=O)c3c(C)ccc1c32
Measured quantity: growth inhibition
Measured result: 68
//
Molecule: CC(=O)Oc1ccc2c(c1)Cc1cc(N3C(=O)C=CC3=O)ccc1-2
Measured quantity: growth inhibition
Measured result: 96
//
Molecule: CN(C)CCNc1ccc2ncn3c4ccc(O)cc4c(=O)c1c23
Measured quantity: growth inhibition
Measured result: 3
//
Molecule: CC(C)C(c1ccccc1)c1ccccc1
Measured quantity: growth inhibition
Measured result: 8
//
Molecule: CC1CCN(CCC(=O)c2ccc([N+](=O)[O-])cc2)CC1
Measured quantity: growth inhibition
Measured result: 34
//
Molecule: COc1ccc(C2CC(C)(N3CCCC3)Oc3cc4c(cc32)OCO4)cc1 (stereo not drawn)
Measured quantity: growth inhibition
Measured result: 32
//
Molecule: N#CSCC1COc2ccccc2O1 (stereo not drawn)
Measured quantity: growth inhibition
Measured result: 72
//
Molecule: CCOP(=O)(OCC)/C(C#N)=C/c1cccc(Oc2ccccc2)c1
Measured quantity: growth inhibition
Measured result: 95
//
Molecule: O=C1C=C(NCCc2cc(Br)c(O)c(Br)c2)C(=O)c2ncccc21
Measured quantity: growth inhibition
Measured result: 89
//
Molecule: O=[N+]([O-])c1cc(Cl)ccc1S(=O)(=O)c1ccc(Cl)cc1[N+](=O)[O-]
Measured quantity: growth inhibition
Measured result: 86
